Attribution: patent US11298363B2

# tested-on: human vasopressin V1a receptor (Homo sapiens)
# Sequence (P37288 whole entry): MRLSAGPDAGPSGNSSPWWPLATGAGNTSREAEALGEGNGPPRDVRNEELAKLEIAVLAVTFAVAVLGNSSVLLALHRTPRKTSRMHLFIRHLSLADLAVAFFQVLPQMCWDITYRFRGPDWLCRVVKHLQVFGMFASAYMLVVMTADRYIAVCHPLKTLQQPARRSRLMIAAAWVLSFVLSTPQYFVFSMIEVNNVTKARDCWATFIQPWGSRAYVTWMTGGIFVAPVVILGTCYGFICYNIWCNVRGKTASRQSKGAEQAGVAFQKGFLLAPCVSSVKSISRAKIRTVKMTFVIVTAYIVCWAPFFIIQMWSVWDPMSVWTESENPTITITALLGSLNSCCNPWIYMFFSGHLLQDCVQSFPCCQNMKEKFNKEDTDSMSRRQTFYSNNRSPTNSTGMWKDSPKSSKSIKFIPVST
# protocol-notes: Functional assay on human vasopressin V1a receptor expressing cell line (intracellular Ca2+ fluorescence)
# Type: cell-based
# condition-info: 1321N1 cells, (Arg8)-vasopressin at EC80; read-out: IC50 (nM) on hV1a cell line
readout: IC50 (nM)
// return numeric value only (unit: nM, not printed)

Worked examples, 5 molecules total:
INSERT INTO assay_data (molecule, tested_on, readout, numeric_value) VALUES
  ('OC1Cc2cc(F)ccc2-n2c(nnc2[C@H]2CC[C@H](Oc3ccccn3)CC2)C1 (stereo partly shown) [Example 111]', 'human vasopressin V1a receptor (Homo sapiens)', 'IC50', 2.4),
  ('Clc1ccc2c(c1)CC1(Cc3nnc(N4CCC(Oc5ccccn5)CC4)n3-2)OCCO1 [Example 157]', 'human vasopressin V1a receptor (Homo sapiens)', 'IC50', 0.5),
  ('CC(C)(C)OC(=O)NC1Cc2cc(Cl)ccc2-n2c(nnc2C2CCN(c3ccccn3)CC2)C1 (stereo not shown) [Example 1]', 'human vasopressin V1a receptor (Homo sapiens)', 'IC50', 95),
  ('CC(C)(C)OC(=O)NC1Cc2cc(Cl)ccc2-n2c(nnc2N2CCN(c3ncccc3Cl)CC2)C1 (stereo not shown) [Example 139]', 'human vasopressin V1a receptor (Homo sapiens)', 'IC50', 130),
  ('CC(C)NC1Cc2cc(Cl)ccc2-n2c(nnc2[C@H]2CC[C@H](Oc3ccccn3)CC2)C1 (stereo partly shown) [Example 24]', 'human vasopressin V1a receptor (Homo sapiens)', 'IC50', 7);

[in] Endpoint output: IC50 of CC(C)CN[C@H]1Cc2cc(Cl)ccc2-n2c(nnc2[C@H]2CC[C@H](Oc3ccccn3)CC2)C1 [Example 161] . Value?
[out] 34

[in] Cool, now COC1Cc2cc(Cl)ccc2-n2c(nnc2[C@H]2CC[C@@](OC)(C(F)(F)F)CC2)C1 (stereo partly shown) [Example 223]
[out] 8.1

[in] Can you check CC(C)NC1Cc2cc(Cl)ccc2-n2c(nnc2C2CCN(c3ccccn3)CC2)C1 (stereo not shown) [Example 135] next?
[out] 54

[in] Next record, please: CO[C@@H]1Cc2cc(Cl)ccc2-n2c(nnc2[C@H]2CC[C@H](C(F)(F)F)CC2)C1 (single isomer, unassigned) [Example 132]
[out] 2.5

[in] Now the molecule COC1Cc2cc(Cl)ccc2-n2c(nnc2[C@H]2CCN(Cc3ccccn3)C2)C1 (stereo partly shown) [Example 253]
[out] 66

[in] Next up: CC(C)(C)OC(=O)NC1Cc2ccccc2-n2c(nnc2[C@H]2CC[C@H](Oc3ccccn3)CC2)C1 (stereo partly shown) [Example 142]
[out] 225

[in] Field entry: N[C@H](C(=O)N[C@@H]1Cc2cc(Cl)ccc2-n2c(nnc2[C@H]2CC[C@H](Oc3ccccn3)CC2)C1)c1ccccc1 [Example 13]
[out] 45

[in] Ok, now COC1Cc2cc(Cl)ccc2-n2c(nnc2C2CCN(Cc3ccccn3)C2)C1 (stereo not shown) [Example 185]
[out] 19

[in] What would you report for Clc1ccc2c(c1)CC1(Cc3nnc([C@H]4CCN(Cc5cccnc5)C4)n3-2)OCCO1 [Example 249] ?
[out] 7

[in] How about Clc1ccc2c(c1)CC1(Cc3nnc(N4CCC(N5CCCCC5)CC4)n3-2)OCCO1 [Example 94] ?
[out] 23

[in] Further, for COC1Cc2cc(Cl)ccc2-n2c(nnc2C2CCN(C(=O)c3ccccn3)C2)C1 (stereo not shown) [Example 189] ?
[out] 229
